# reported pIC50; entries follow
# target_or_system: human orexin-1 receptor (Homo sapiens (Human))
# test_details: In vitro intracellular calcium measurements (FLIPR), antagonistic activity on orexin-1 receptor
# Type: cell-based
# condition_details: CHO cells expressing human orexin-1 receptor; FLIPR; 3 nM orexin-A agonist; 120 min antagonist incubation; geometric mean if determined several times; read-out: IC50 OX1
pIC50: −log10 of the molar value.
readout_label: pIC50

In [3]: df
Out[3]:
                               smiles_entry  quantitative_result
0  C[C@@H]1COC[C@@H](Cc2cccc(-n3nccn3)c2)N1C(=O)c1ccccc1-n1nccn1                 7.80
1  Cc1ccc(-n2nccn2)c(C(=O)N2CCOC[C@H]2Cc2cc(-n3nccn3)ccc2F)c1F                 8.10
2  COc1cc(C(=O)N2CCOC[C@H]2Cc2cccc(-n3nccn3)c2)c(-n2nccn2)cc1F                 7.77
3  O=C(c1ccccc1-n1nccn1)N1CCOC[C@H]1Cc1ccc(Cl)c(-c2ncccn2)c1                 7.48

---

# target_or_system: UniProtKB O43614
# Sequence (O43614 whole entry): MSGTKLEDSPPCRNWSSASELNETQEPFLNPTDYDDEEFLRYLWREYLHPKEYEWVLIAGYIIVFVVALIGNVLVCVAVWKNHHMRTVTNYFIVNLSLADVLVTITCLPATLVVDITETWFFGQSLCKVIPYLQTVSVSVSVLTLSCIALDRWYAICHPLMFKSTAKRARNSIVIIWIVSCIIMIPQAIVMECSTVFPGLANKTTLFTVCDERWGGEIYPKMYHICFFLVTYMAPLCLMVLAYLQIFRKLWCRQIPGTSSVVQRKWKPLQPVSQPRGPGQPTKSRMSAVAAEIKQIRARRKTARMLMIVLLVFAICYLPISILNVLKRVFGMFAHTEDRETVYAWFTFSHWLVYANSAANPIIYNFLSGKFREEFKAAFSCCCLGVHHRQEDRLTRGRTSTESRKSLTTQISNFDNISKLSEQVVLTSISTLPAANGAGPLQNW
# test_details: In vitro intracellular calcium measurements (FLIPR), antagonistic activity on orexin-2 receptor
# Type: cell-based
# condition_details: CHO cells expressing human orexin-2 receptor; FLIPR; 3 nM orexin-A agonist; 120 min antagonist incubation; geometric mean if determined several times; read-out: IC50 OX2
# Procedure: In Vitro Assay: Intracellular Calcium Measurements: […] Within the Fluorescent Imaging Plate Reader (FLIPR Tetra, Molecular Devices), antagonists are added to the plate in a volume of 10 μL/well, incubated for 120 min and finally 10 μL/well of agonist is added. Fluorescence is measured for each well at 1 second intervals, and the height of each fluorescence peak is compared to the height of the fluorescence peak induced by 3 nM orexin-A with vehicle in place of antagonist. […]
pIC50: −log10 of the molar value.
readout_label: pIC50

In [3]: df
Out[3]:
                                smiles_entry  quantitative_result
 0  O=C(c1ccccc1-n1nccn1)N1CCOC[C@H]1Cc1cccc(-c2ncco2)c1                 5.70
 1  Cc1ccc(-n2nccn2)c(C(=O)N2C[C@@H](C)OC[C@H]2Cc2cc(-n3nccn3)ccc2F)c1                 6.84
 2  O=C(c1ccccc1-n1nccn1)N1CCOC[C@@H]1Cc1cccc(-n2nccn2)c1                 5.35
 3  O=C(c1ccccc1-n1nccn1)N1CCOC[C@H]1Cc1cccc(-n2nccn2)c1                 5.91
 4  Cc1ccc(-n2nccn2)c(C(=O)N2CCOC[C@H]2Cc2cccc(-c3nccs3)c2)c1                 6.56
 5  Cc1ccc(C[C@@H]2COCCN2C(=O)c2ccccc2-n2nccn2)cc1-n1nccn1                 6.00
 6  Cc1ccc(C(=O)N2CCOC[C@H]2Cc2cc(-n3nccn3)ccc2F)c(-n2nccn2)c1C                 5.45
 7  Cc1cccc(C(=O)N2C[C@@H](C)OC[C@H]2Cc2cccc(-c3ncccn3)c2)c1-n1nccn1                 6.01
 8  COc1ccc(-n2nccn2)c(C(=O)N2CCOC[C@H]2Cc2cccc(-n3nccn3)c2)c1F                 5.92
 9  O=C(c1cccc(F)c1-n1nccn1)N1CCOC[C@H]1Cc1cccc(-n2nccn2)c1                 5.74
10  Cc1ccc(C(=O)N2CCOC[C@H]2Cc2cc(-c3ncon3)ccc2F)c(-n2nccn2)c1C                 5.80
11  Cc1ccc(-n2nccn2)c(C(=O)N2CCC[C@H]2Cc2cccc(-n3nccn3)c2)c1                 8.10
12  O=C(c1ccc(Cl)cc1-n1nccn1)N1CCOC[C@H]1Cc1cccc(-c2ncon2)c1                 5.58
13  N#Cc1ccc(-n2nccn2)c(C(=O)N2CCOC[C@H]2Cc2cccc(-n3nccn3)c2)c1                 6.44
14  C[C@@H]1CN(C(=O)c2ccccc2-n2nccn2)[C@H](Cc2cccc(-c3ncccn3)c2)CO1                 6.07
15  Cc1ccc(-n2cccn2)cc1C[C@@H]1COCCN1C(=O)c1cccc(C)c1-n1nccn1                 5.42

---

# target_or_system: human orexin-1 receptor (Homo sapiens (Human), UniProt O43613)
# Sequence (O43613 whole entry): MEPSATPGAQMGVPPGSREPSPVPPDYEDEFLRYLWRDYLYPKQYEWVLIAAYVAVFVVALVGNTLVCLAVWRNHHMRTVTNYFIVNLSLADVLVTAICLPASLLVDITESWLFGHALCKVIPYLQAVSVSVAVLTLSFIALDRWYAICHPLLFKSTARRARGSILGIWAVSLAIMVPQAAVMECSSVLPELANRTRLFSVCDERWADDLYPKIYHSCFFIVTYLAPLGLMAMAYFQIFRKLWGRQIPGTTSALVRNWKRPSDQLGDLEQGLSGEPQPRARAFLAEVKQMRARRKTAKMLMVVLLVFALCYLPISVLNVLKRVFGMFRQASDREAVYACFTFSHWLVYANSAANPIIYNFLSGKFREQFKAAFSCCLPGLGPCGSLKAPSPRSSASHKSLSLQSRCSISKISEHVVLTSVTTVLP
# test_details: In vitro intracellular calcium measurements (FLIPR), antagonistic activity on orexin-1 receptor
# Assay type: cell-based
# condition_details: CHO cells expressing human orexin-1 receptor; FLIPR; 3 nM orexin-A agonist; 120 min antagonist incubation; geometric mean if determined several times; read-out: IC50 OX1
readout_label: IC50 (nM)

>>> df
                               smiles_entry                          target_or_system  quantitative_result
0  C[C@@H]1CN(C(=O)c2ccccc2-n2nccn2)[C@H](Cc2cccc(-n3nccn3)c2)CO1  human orexin-1 receptor (Homo sapiens (Human), UniProt O43613)                    6
1  O=C(c1cccc(Cl)c1-n1nccn1)N1CCOC[C@H]1Cc1cc(-n2nccn2)ccc1Cl  human orexin-1 receptor (Homo sapiens (Human), UniProt O43613)                   10
2  Cc1ccc(-n2nccn2)c(C(=O)N2CCOC[C@H]2Cc2cccc(-n3nccn3)c2)c1F  human orexin-1 receptor (Homo sapiens (Human), UniProt O43613)                    4
3  O=C(c1cc(Cl)ccc1-n1nccn1)N1CCOC[C@H]1Cc1cccc(-c2ncccn2)c1  human orexin-1 receptor (Homo sapiens (Human), UniProt O43613)                    3

---

# reported IC50; entries follow
# target_or_system: CYP3A4 (Homo sapiens (Human), UniProt P08684)
# Sequence (P08684 whole entry): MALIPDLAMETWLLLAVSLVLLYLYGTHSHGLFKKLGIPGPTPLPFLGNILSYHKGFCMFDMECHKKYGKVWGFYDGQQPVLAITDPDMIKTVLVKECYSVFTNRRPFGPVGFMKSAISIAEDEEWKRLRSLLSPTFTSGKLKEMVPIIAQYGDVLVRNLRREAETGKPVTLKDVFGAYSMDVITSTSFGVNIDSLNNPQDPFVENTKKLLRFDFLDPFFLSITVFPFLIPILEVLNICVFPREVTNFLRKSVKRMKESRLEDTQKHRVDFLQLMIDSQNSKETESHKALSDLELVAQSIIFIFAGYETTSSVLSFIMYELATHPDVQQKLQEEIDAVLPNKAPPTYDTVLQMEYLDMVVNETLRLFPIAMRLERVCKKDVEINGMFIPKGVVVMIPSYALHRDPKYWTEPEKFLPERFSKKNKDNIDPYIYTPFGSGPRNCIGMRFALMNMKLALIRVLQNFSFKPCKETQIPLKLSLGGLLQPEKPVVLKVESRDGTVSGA
# test_details: CYP3A4 inhibition assay (human liver microsomes, testosterone 6β-hydroxylation)
# condition_details: read-out: CYP3A4 IC50, 40 μM testosterone
readout_label: IC50 (µM)

                                   compound  unit_abbrev  inequality_operator  quantitative_result
0  COc1ccc(C[C@@H]2COCCN2C(=O)c2ccccc2-n2nccn2)cc1-c1ncco1 [Example 9]           µM                    =                  8.4
1  O=C(c1cccc(Cl)c1-n1nccn1)N1CCOC[C@H]1Cc1cc(-c2ncccn2)ccc1F [Example 161]           µM                    =                   33
2  O=C(c1cccc(F)c1-n1nccn1)N1CCOC[C@H]1Cc1cccc(-n2nccn2)c1 [Example 54]           µM                    >                   50
3  Cc1ccc(-n2nccn2)c(C(=O)N2CCOC[C@H]2Cc2cccc(-c3nccs3)c2)c1 [Example 43]           µM                    =                  1.2
4  Cc1ccc(C(=O)N2C[C@@H](C)OC[C@H]2Cc2cc(-n3nccn3)ccc2F)c(-n2nccn2)c1 [Example 117]           µM                    =                   23
5  Cc1cccc(C(=O)N2C[C@@H](C)OC[C@H]2Cc2cccc(-n3nccn3)c2)c1-n1nccn1 [Example 97]           µM                    =                   11
6  Cc1cc(C(=O)N2CCOC[C@H]2Cc2cccc(-c3ncon3)c2)c(-n2nccn2)cc1C [Example 85]           µM                    =                   25
7  O=C(c1ccccc1-n1nccn1)N1CCOC[C@H]1Cc1cccc(-c2ncon2)c1 [Example 1]           µM                    >                   50

---

# target_or_system: UniProtKB O43614
# test_details: In vitro intracellular calcium measurements (FLIPR), antagonistic activity on orexin-2 receptor
# Format: cell-based
# condition_details: CHO cells expressing human orexin-2 receptor; FLIPR; 3 nM orexin-A agonist; 120 min antagonist incubation; geometric mean if determined several times; read-out: IC50 OX2
# reported IC50; entries follow
readout_label: IC50 (nM)

In [3]: df
Out[3]:
                               smiles_entry  readout_label  quantitative_result
0  O=C(c1cccc(Cl)c1-n1nccn1)N1CCOC[C@H]1Cc1cc(-n2nccn2)ccc1F           IC50                 1880
1  C[C@@H]1CN(C(=O)c2cc(Cl)ccc2-n2nccn2)[C@H](Cc2cccc(-n3nccn3)c2)CO1           IC50                   96
2  C[C@@H]1CN(C(=O)c2ccc(Cl)cc2-n2nccn2)[C@H](Cc2cc(-n3nccn3)ccc2F)CO1           IC50                   58
3  O=C(c1ccccc1-n1nccn1)N1CCOC[C@H]1Cc1cccc(-c2nccs2)c1           IC50                  457
